# experimental-system: Fibroblast growth factor 10 (Homo sapiens) (UniProt O15520)
# Sequence (O15520 whole entry, looked up): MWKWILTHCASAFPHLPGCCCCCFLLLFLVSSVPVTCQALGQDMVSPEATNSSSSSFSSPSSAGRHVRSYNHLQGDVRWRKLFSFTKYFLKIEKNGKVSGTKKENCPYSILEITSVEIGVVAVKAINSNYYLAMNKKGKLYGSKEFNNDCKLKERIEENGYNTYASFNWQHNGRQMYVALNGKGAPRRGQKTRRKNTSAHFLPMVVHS
# measurement-description: FGF10 binders on small-molecule microarrays, primary screen, biochemical, small-molecule microarray, 635 nm fluorescence (AID 1102)
# condition-info: FGF10 binding, fluorescence 635 nm, higher = more signal
composite z-score listing for selected compounds.
metric-name: composite z-score

{"compound": "CCCCC=C[C@@H](NC(=O)c1cccs1)c1ccccc1", "endpoint-result": 0.44}
{"compound": "O=C1C2C=CC(C(O)c3cccs3)N(Nc3ccccc3F)C2C(=O)N1c1ccccc1 (configuration not stated)", "endpoint-result": 0.092}
{"compound": "O=C(NCc1ccccc1)[C@]1(CCS(=O)(=O)c2ccccc2)N=C(c2ccc(OCCCO)cc2)O[C@@H]1c1ccccc1", "endpoint-result": 1.42}
{"compound": "O=c1oc(-c2ccccc2)nc2cc(Br)ccc12", "endpoint-result": 0.312}
{"compound": "COC(=O)C(CC#Cc1ccc2c(c1)[C@]1(C(=O)N2)[C@H](C(=O)NC[C@H](O)c2ccccc2)[C@H]2C(=O)O[C@H](c3ccccc3)[C@H](c3ccccc3)N2[C@@H]1c1ccc(OCCO)cc1)C(=O)OC", "endpoint-result": 1.3}
{"compound": "COCCOC(=O)N1C(=O)[C@@]2(c3ccccc31)[C@H](c1ccc(O)cc1)N1[C@H](c3ccccc3)[C@H](c3ccccc3)OC(=O)[C@H]1[C@@H]2C(=O)N1CCc2cc(OC)c(OC)cc2C1", "endpoint-result": 1.36}
{"compound": "COC(=O)[C@@]1(Cc2ccc(OC)cc2)[C@H]2c3cc(C(=O)N4CCCC4)n(Cc4cc(F)cc5c4OCOC5)c3C[C@H]2CN1C(=O)c1ccccc1", "endpoint-result": 0.608}

----------
z-score listing for selected compounds.
# measurement-description: cell viability in Huh7 cells, primary screen, cytotoxicity control for HCV replication inhibitor project, CellTiter-Glo luminescence, basal, 48 h (AID 1143);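 also: Huh7 hepatoma cells carrying a hepatitis C replication reporter with no stimulus; test concentration not given here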
# condition-info: Huh7 HCV replicon, higher = more signal, called active from +8 up or from −8 down

{"compound": "CCOC(=O)C1=CCC(c2ccc([N+](=O)[O-])cc2)N(S(=O)(=O)c2ccc(C)cc2)C1 (configuration not stated)", "z-score": -3.94}
{"compound": "CCOC(=O)C[C@H]1[C@H](OC(=O)c2ccccc2-c2ccccc2)[C@@H](NC(=O)Cc2ccc(OC)cc2)c2cc(OCCCO)ccc2N1C(=O)c1ccccc1", "z-score": -0.0369}
{"compound": "COc1cc(CO)ccc1OC(C)=O", "z-score": -2.07}
{"compound": "COc1ccc(C(=O)Nc2cccc(CN3C(=O)[C@@]4(O[C@@H](CCn5cc(CCO)nn5)[C@H]([Si](C)(C)c5ccc(OC)cc5)[C@H]4C)c4ccccc43)c2)cc1", "z-score": -8.01}
{"compound": "CO[C@H]1O[C@H](CO)[C@@H](OC(=O)Nc2ccc3c(c2)OCO3)[C@H](OC(=O)Nc2ccccc2)[C@H]1OC(=O)Nc1ccccc1", "z-score": -5.46}
{"compound": "CCCN1C(=O)[C@@]2(CCC(=O)OC(C)(C)C)N=C(c3ccc(OCCCO)cc3)O[C@H]2c2ccccc21", "z-score": -4.47}
{"compound": "COC(=O)[C@]1(Cc2ccccc2N=[N+]=[N-])N=C(c2ccc(OCCCO)cc2)O[C@@H]1c1ccccc1N=[N+]=[N-]", "z-score": -5.35}

----------
# System: Human papillomavirus type 1a E7 protein (residues 1-88)
# measurement-description: HPV1a E7 small-molecule binders, primary screen, biochemical, small-molecule microarray, residues 1-88, 635 nm (AID 1129)
# condition-info: small-molecule microarray binding, fluorescence 635 nm; higher = more signal

{"compound": "COc1ccc(CCNC(=O)[C@@]2(c3ccc([N+](=O)[O-])cc3)CC(=O)N(CC34CC5CC(CC(C5)C3)C4)[C@@H]2c2ccc(CO)cc2)cc1", "composite z-score": 1.17}
{"compound": "C#CCN(C(/C=C/c1ccccc1)CO)C(C(=O)O)c1ccccc1 (stereo not given)", "composite z-score": -1.19}
{"compound": "CCCCC(CC)C(O)C1C=CC2C(=O)N(c3ccccc3)C(=O)C2N1Nc1ccccc1 (stereo not given)", "composite z-score": 1.19}
{"compound": "COCCOC(=O)N1C(=O)[C@@]2(c3cc(C#CCCO)ccc31)[C@H](c1ccccc1OCCO)N1[C@H](c3ccccc3)[C@H](c3ccccc3)OC(=O)[C@H]1[C@@H]2C(=O)N1CCN(c2ncccn2)CC1", "composite z-score": 1.21}
{"compound": "O=C1O[C@H](c2ccccc2)[C@H](c2ccccc2)N2[C@H]1[C@@H](C(=O)O)[C@]1(C(=O)Nc3ccc(C#CC4(O)CCCCCC4)cc31)[C@H]2c1ccc(OCCO)cc1", "composite z-score": 1.25}
{"compound": "Cc1c(NC(=O)CC#N)c(=O)n(-c2ccccc2)n1C", "composite z-score": 0.469}
{"compound": "C=CCC(OC(C)=O)[C@@H]1[C@@H](N(Cc2ccc(-c3ccccc3)cc2)C(=O)Cc2ccc(F)cc2)c2cc(OCCCO)ccc2N1C(=O)c1ccc2ccccc2n1 (stereo not given in full)", "composite z-score": -0.0475}
{"compound": "CCOC(=O)[C@H]1C/C=C/C[C@H](C(=O)OCC)C(=O)O[C@H]2[C@@H](OC)O[C@H](CO)[C@@H](OC(=O)Nc3ccc4c(c3)OCO4)[C@@H]2OC1=O", "composite z-score": 1.2}
{"compound": "C=CC[C@]1(C(=O)N2CCOCC2)N=C(c2ccc(OCCCO)cc2)O[C@H]1c1ccccc1", "composite z-score": 1.22}
{"compound": "COc1cc(C(O)C2C=CC3C(=O)N(c4ccccc4)C(=O)C3N2Nc2ccc(C#N)cc2)cc(OC)c1OC (stereo not given)", "composite z-score": 1.31}
{"compound": "CC(C)CNC(=O)[C@@]1(c2ccc([N+](=O)[O-])cc2)CC(=O)N(CC23CC4CC(CC(C4)C2)C3)[C@@H]1c1ccc(CO)cc1", "composite z-score": 0.662}
{"compound": "COCCOC(=O)N1C(=O)[C@@]2(c3cc(C#CCCO)ccc31)[C@H](c1ccc(O)cc1)N1[C@H](c3ccccc3)[C@H](c3ccccc3)OC(=O)[C@H]1[C@@H]2C(N)=O", "composite z-score": 0.215}
{"compound": "CC(C)NC(=O)[C@@H]1c2ccccc2C(=O)N(Cc2ccccc2)[C@H]1c1ccc(CO)cc1", "composite z-score": 0.482}
{"compound": "O=c1cccc(CCc2ccccc2)o1", "composite z-score": 0.741}
{"compound": "O=C1OCC=C[C@H]2OC34C=CCN(c5ccc6ccccc6c5)C(=O)[C@H]3N(CCCO)C(=O)[C@@H]4[C@@H]12 (stereo not given in full)", "composite z-score": -0.92}

----------
# measurement-description: splicing luciferase reporter signal modulators, primary screen, spliceosome inhibition project, cell-based, HEK293, splice +/- reporter (AID 1101);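 also: HEK293 cells carrying a splicing-competent luciferase reporter gene; test concentration not given here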
# condition-info: luminescence, 24 h, higher = more signal, called active from +8 up or from −8 down
z-score listing for selected compounds.

{"compound": "CC(C)NC(=O)[C@@H]1c2ccccc2C(=O)N(Cc2ccccc2Cl)[C@H]1c1ccc(CO)cc1", "z-score": 0.62}
{"compound": "CC=CC(O)C1C=CC2C(=O)N(c3ccccc3)C(=O)C2N1Nc1ccc(C(C)C)cc1 (stereo not given)", "z-score": -0.235}
{"compound": "CS(=O)(=O)CCOC(=O)C1=CC(CCCO)=CC(c2cccs2)N(Cc2cc3c(cc2Br)OCO3)C=C1C(=O)OCCS(C)(=O)=O (stereo not given)", "z-score": 0.576}
{"compound": "CN1C(=O)C2C(C1=O)C1C=C(CCCO)C2C(c2cccs2)N1C (stereo not given)", "z-score": -0.0035}
{"compound": "O=c1cccc(CCc2ccccc2)o1", "z-score": 0.722}

----------
composite z-score listing for selected molecules.
# experimental-system: Epidermal growth factor receptor (Homo sapiens) (UniProt P00533)
# Sequence (P00533 whole entry, looked up): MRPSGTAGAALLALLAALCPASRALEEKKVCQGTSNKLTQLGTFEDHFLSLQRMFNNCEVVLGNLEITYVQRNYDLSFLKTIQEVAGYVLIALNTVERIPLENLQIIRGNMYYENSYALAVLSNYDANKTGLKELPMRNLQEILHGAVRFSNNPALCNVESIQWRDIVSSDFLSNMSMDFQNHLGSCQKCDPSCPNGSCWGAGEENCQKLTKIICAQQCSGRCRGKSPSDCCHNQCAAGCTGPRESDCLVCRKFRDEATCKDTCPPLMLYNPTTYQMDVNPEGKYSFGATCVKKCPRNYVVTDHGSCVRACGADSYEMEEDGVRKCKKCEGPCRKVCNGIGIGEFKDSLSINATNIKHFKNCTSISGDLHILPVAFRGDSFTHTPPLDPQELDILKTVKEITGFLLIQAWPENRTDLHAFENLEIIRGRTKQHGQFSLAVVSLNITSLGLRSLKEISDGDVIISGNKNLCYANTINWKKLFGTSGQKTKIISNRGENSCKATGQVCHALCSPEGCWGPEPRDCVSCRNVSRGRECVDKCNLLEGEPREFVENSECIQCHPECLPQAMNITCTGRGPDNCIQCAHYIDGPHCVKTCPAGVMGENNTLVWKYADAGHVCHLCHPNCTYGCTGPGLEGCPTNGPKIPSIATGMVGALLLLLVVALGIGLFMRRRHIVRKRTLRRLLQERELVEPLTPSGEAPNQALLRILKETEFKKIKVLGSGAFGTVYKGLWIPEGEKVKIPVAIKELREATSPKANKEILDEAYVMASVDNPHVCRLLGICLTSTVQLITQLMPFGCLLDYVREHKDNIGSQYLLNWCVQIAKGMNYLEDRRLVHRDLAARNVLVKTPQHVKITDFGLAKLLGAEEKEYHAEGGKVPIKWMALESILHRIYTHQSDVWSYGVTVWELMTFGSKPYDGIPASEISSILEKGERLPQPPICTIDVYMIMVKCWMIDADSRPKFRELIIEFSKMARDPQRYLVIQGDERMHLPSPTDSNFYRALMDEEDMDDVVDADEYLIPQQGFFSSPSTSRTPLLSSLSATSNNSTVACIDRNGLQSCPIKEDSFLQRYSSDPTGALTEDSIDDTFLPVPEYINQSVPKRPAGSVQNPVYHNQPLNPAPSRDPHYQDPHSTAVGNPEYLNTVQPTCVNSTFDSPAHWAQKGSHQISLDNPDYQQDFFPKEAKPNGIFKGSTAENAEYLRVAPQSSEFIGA
# measurement-description: EGFR binders on small-molecule microarrays, primary screen, biochemical, small-molecule microarray, 635 nm fluorescence (AID 1104);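 also: score merges 667 nm emission intensity with spot signal to noise over triplicate slides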
# condition-info: EGFR binding, higher = more signal

{"molecule": "O=C1N(CCS(=O)(=O)c2ccccc2)Cc2ccccc2C[C@]12N=C(c1ccc(OCCCO)cc1)O[C@@H]2c1ccccc1", "composite z-score": 0.477}
{"molecule": "NCCCCCCNC(=O)[C@H]1C[C@H]2C(=O)NCC(=O)N2[C@H]1c1cccc(OCCO)c1", "composite z-score": 0.544}
{"molecule": "C=CCC(OC(C)=O)[C@@H]1[C@@H](N(Cc2ccc(-c3ccccc3)cc2)C(=O)Cc2ccc(OC)cc2)c2cc(OCCCO)ccc2N1C(=O)c1ccc2ccccc2n1 (some centres not stated)", "composite z-score": 0.24}
{"molecule": "CCOC(=O)C1=CCC(C(C)(C)C)N(S(=O)(=O)c2ccc(C)cc2)C1 (configuration not stated)", "composite z-score": 1.15}
{"molecule": "C=CC[C@@]1(C(=O)N2CCOCC2)N=C(c2ccc(OCCCO)cc2)O[C@@H]1c1ccccc1N=[N+]=[N-]", "composite z-score": 0.279}
{"molecule": "[N-]=[N+]=Nc1ccccc1[C@H]1OC(c2ccc(OCCCO)cc2)=N[C@@]1(CCS(=O)(=O)c1ccccc1)C(=O)O", "composite z-score": -0.18}
{"molecule": "COC(=O)C(CC#Cc1ccc2c(c1)[C@]1(C(=O)N2)[C@H](C(=O)NC[C@H](O)c2ccccc2)[C@H]2C(=O)O[C@H](c3ccccc3)[C@H](c3ccccc3)N2[C@@H]1c1ccc(OCCO)cc1)C(=O)OC", "composite z-score": 0.767}
{"molecule": "C[N+](C)(C)CCCCCCNC(=O)[C@H]1C[C@H]2C(=O)N3CCC[C@H]3C(=O)N2[C@H]1c1ccc(O)cc1", "composite z-score": -0.278}
{"molecule": "Cc1ccc(S[C@]2(C(=O)NCC(C)C)CC(=O)N(Cc3ccccc3)[C@@H]2c2ccc(CO)cc2I)cc1", "composite z-score": 0.287}
{"molecule": "CCCC[C@@H]1C[C@H]1[C@@H](NC(=O)c1ccc(-c2ccccc2)cc1)c1ccc(-c2ccccc2)cc1", "composite z-score": 1.21}
{"molecule": "CCC(CC)C(O)C1C=CC2C(=O)N(c3ccccc3)C(=O)C2N1Nc1ccc(C#N)cc1 (configuration not stated)", "composite z-score": 0.231}
{"molecule": "O=C1N(CCS(=O)(=O)c2ccccc2)c2ccccc2C[C@@]12COC(c1ccc(OCCCO)cc1)=N2", "composite z-score": 0.432}
{"molecule": "C=CCOC(=O)[C@@H]1[C@H]2C(=O)O[C@H](c3ccccc3)[C@H](c3ccccc3)N2[C@H](c2ccc(OCCOC(=O)[C@@H]3C[C@@H]4C(=O)N[C@@H](Cc5ccccc5)C(=O)N4[C@@H]3c3cccc(OCCO)c3)cc2)[C@@]12C(=O)Nc1ccc(I)cc12", "composite z-score": 0.934}
{"molecule": "COCCCNC(=O)[C@@]1(CCC(=O)OC(C)(C)C)N=C(c2ccc(OCCCO)cc2)O[C@H]1c1ccccc1CN=[N+]=[N-]", "composite z-score": 0.123}
{"molecule": "CCOC(=O)C[C@H]1[C@H](OC(=O)Cc2ccc3c(c2)OCO3)[C@@H](NC(=O)C2CCCCC2)c2cc(OCCCO)ccc2N1C(=O)Cc1ccc(OC)cc1", "composite z-score": 0.252}
{"molecule": "CN1C=C(C(=O)OCCS(C)(=O)=O)C(C(=O)OCCS(C)(=O)=O)=CC(CCCO)=CC1C1CC1 (configuration not stated)", "composite z-score": -0.14}
{"molecule": "CCN(CC)c1ccc(N2CC=CC34O[C@@H]5C=CCCOC(=O)C5[C@H]3C(=O)N(CCCCCO)[C@@H]4C2=O)cc1 (some centres not stated)", "composite z-score": -0.76}
{"molecule": "C=C(CCCC)C(=O)CC[C@H](OC(=O)c1cccnc1)c1cccc(OCCO)c1", "composite z-score": -0.502}
{"molecule": "COC(=O)C[C@H]1O[C@]2(C(=O)N(Cc3ccccc3)c3ccc(NC(C)=O)cc32)[C@@H](C)[C@@H]1[Si](C)(C)c1ccc(OC)cc1", "composite z-score": 0.474}
{"molecule": "[N-]=[N+]=NCc1ccccc1C[C@@]1(C(=O)N2CCOCC2)N=C(c2ccc(OCCCO)cc2)O[C@@H]1c1ccccc1CN=[N+]=[N-]", "composite z-score": 0.422}
{"molecule": "CC(C)C[C@@H]1NC(=O)[C@H]2C[C@@H](C(=O)NCCCCCCNC(=O)CS)[C@@H](c3cccc(OCCO)c3)N2C1=O", "composite z-score": 1.23}
{"molecule": "COC(=O)C(CC#Cc1ccc2c(c1)[C@]1(C(=O)N2)[C@H](c2ccc(OCCO)cc2)N2[C@H](c3ccccc3)[C@H](c3ccccc3)OC(=O)[C@H]2[C@@H]1C(=O)NC[C@H](O)c1ccccc1)C(=O)OC", "composite z-score": 0.0713}
{"molecule": "CCCCCN1CC=CC23O[C@@H]4/C=C\\CCC(C)OC(=O)C4[C@H]2C(=O)N(CCCCCO)[C@@H]3C1=O (some centres not stated)", "composite z-score": 0.361}
{"molecule": "CCOC(=O)C[C@H]1[C@H](OC(=O)c2ccccc2-c2ccccc2)[C@@H](NC(=O)c2ccc3ccccc3c2)c2cc(OCCCO)ccc2N1C(=O)c1ccc2ccccc2n1", "composite z-score": 0.289}
{"molecule": "COCCOC(=O)N1C(=O)[C@@]2(c3cc(C#CCC(C(=O)OC)C(=O)OC)ccc31)[C@H](c1ccccc1OCCO)N1[C@H](c3ccccc3)[C@H](c3ccccc3)OC(=O)[C@H]1[C@@H]2C(=O)N1CCc2cc(OC)c(OC)cc2C1", "composite z-score": 0.99}
{"molecule": "N[C@@H](Cc1ccccc1)Cn1cc(-c2ccccc2)nn1", "composite z-score": 0.0157}
{"molecule": "COc1ccc(CCN2C(=O)[C@@]3(Cc4ccccc42)c2ccccc2C(=O)N(Cc2ccccc2Cl)[C@H]3c2ccc(CO)cc2)cc1", "composite z-score": -1.12}
